Reported Activity values for the following compounds.
Molecular target: Protein cereblon/Glycogen synthase kinase-3 beta (Homo sapiens, UniProt P49841+Q96SW2)
Sequence (P49841 whole entry, looked up): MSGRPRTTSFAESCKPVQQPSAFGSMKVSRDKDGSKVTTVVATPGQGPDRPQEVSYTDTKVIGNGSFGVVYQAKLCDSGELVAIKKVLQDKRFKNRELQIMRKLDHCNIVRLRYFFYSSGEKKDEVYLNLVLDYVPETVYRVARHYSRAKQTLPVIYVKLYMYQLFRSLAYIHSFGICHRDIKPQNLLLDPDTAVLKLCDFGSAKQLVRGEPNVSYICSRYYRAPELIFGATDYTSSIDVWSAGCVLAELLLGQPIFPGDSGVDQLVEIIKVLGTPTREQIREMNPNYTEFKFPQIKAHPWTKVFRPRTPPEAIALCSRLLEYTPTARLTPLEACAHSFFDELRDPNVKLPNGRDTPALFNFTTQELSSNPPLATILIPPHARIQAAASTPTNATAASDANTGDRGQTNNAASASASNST
Sequence (Q96SW2 whole entry, looked up): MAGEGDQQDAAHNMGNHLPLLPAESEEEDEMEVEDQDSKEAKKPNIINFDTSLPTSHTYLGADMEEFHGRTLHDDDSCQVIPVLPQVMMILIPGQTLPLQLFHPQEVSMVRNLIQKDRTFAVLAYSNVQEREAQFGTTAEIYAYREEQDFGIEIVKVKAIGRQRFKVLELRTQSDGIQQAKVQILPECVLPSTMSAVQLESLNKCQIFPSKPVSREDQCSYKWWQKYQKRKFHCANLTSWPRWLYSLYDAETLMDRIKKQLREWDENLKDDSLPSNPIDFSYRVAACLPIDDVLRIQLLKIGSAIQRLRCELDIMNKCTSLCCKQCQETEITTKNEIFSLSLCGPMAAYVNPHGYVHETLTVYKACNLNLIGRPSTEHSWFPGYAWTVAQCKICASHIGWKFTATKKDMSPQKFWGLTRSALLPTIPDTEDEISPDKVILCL
Test: Protac activity at CRBN/GSK3beta in human SH-SY5Y cells assessed as induction of GSK3beta degradation at 1 uM measured after 24 hrs
Type: cell-based

COMPOUND	TESTED ON	Activity [%]
Nc1ncc(-c2ccc(S(=O)(=O)N3CCN(Cc4cn(CCOCCOCCOCCNc5cccc6c5C(=O)N(C5CCC(=O)NC5=O)C6=O)nn4)CC3)cc2)nc1C(=O)Nc1cccnc1 (stereo unspecified)	Protein cereblon/Glycogen synthase kinase-3 beta (Homo sapiens, UniProt P49841+Q96SW2)	46.6
Nc1ncc(-c2ccc(S(=O)(=O)N3CCN(Cc4cn(CCOCCOCCOCCOCCOCCOCCNc5cccc6c5C(=O)N(C5CCC(=O)NC5=O)C6=O)nn4)CC3)cc2)nc1C(=O)Nc1cccnc1 (stereo unspecified)	Protein cereblon/Glycogen synthase kinase-3 beta (Homo sapiens, UniProt P49841+Q96SW2)	61.3
Nc1ncc(-c2ccc(S(=O)(=O)N3CCN(CCCCc4cn(CCOCCOCCOCCOCCNc5cccc6c5C(=O)N(C5CCC(=O)NC5=O)C6=O)nn4)CC3)cc2)nc1C(=O)Nc1cccnc1 (stereo unspecified)	Protein cereblon/Glycogen synthase kinase-3 beta (Homo sapiens, UniProt P49841+Q96SW2)	84.4
Nc1ncc(-c2ccc(S(=O)(=O)N3CCN(CCc4cn(CCOCCOCCOCCOCCOCCNc5cccc6c5C(=O)N(C5CCC(=O)NC5=O)C6=O)nn4)CC3)cc2)nc1C(=O)Nc1cccnc1 (stereo unspecified)	Protein cereblon/Glycogen synthase kinase-3 beta (Homo sapiens, UniProt P49841+Q96SW2)	81.3
COc1ccc(-c2ocnc2C(=O)NCCCc2cn(CCOCCOCCOCCOCCOCCOCCNc3cccc4c3C(=O)N(C3CCC(=O)NC3=O)C4=O)nn2)cc1Cl (stereo unspecified)	Protein cereblon/Glycogen synthase kinase-3 beta (Homo sapiens, UniProt P49841+Q96SW2)	88.8
COc1ccc(-c2ocnc2C(=O)NCCCc2cn(CCOCCOCCOCCOCCOCCOCCNc3cccc4c3C(=O)N(C3CCC(=O)NC3=O)C4=O)nn2)cc1I (stereo unspecified)	Protein cereblon/Glycogen synthase kinase-3 beta (Homo sapiens, UniProt P49841+Q96SW2)	50.1
